Source listed as the RNAGym collection of RNA variant scans (doi:10.1101/gr.219683.116).

B1: mRNA-splicing (parent)
chain: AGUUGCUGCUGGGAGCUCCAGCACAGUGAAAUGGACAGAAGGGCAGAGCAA

# Variants of: B1
# ASSAY_OVERVIEW: exon inclusion enrichment index; higher = more inclusion; WT1 exon 5 minigene, HEK293
Hi, to clarify the labels: Criterion met covers exon inclusion enrichment index from 1 upward, Criterion not met covers anything below 1.

QUERY: Could you tell me if the measured exon inclusion enrichment index of G5U G8U C9U G42U G43A reaches 1 or more?
RESULT: Criterion not met

QUERY: Could you tell me if the measured exon inclusion enrichment index of G5A C6G U7G C9A A31G reaches 1 or more?
RESULT: Criterion not met

QUERY: Could you tell me if the measured exon inclusion enrichment index of G5A U7C G8U C9A U10C reaches 1 or more?
RESULT: Criterion met

QUERY: Could you tell me if the measured exon inclusion enrichment index of G5A U7C G8A U10C C16A U17C reaches 1 or more?
RESULT: Criterion met

QUERY: Could you tell me if the measured exon inclusion enrichment index of G5A U7C G8A U10C G43C C44U reaches 1 or more?
RESULT: Criterion met

QUERY: Could you tell me if the measured exon inclusion enrichment index of G5C C6G U7C U10C A45G G46C reaches 1 or more?
RESULT: Criterion met

QUERY: Could you tell me if the measured exon inclusion enrichment index of G5U G8U C9U A40U G41C reaches 1 or more?
RESULT: Criterion not met

QUERY: Could you tell me if the measured exon inclusion enrichment index of G5C C6G U7A G8C U10C reaches 1 or more?
RESULT: Criterion met

QUERY: Could you tell me if the measured exon inclusion enrichment index of G5A U7C G8A U10C G42A G43C reaches 1 or more?
RESULT: Criterion met

QUERY: Could you tell me if the measured exon inclusion enrichment index of G5C C6G U7C U10C U17C reaches 1 or more?
RESULT: Criterion met
